Tested on: AurB or AurC
Assay: Probe-based (AX9989) kinase profiling in Jurkat lysate: AurB or AurC
Type: binding
Details: screening concentration 0.1 μM
measurement-kind: Kinase inhibition % at indicated screening concentration: AurB or AurC

CCOc1cc(C(=O)N2CC[C@@H](N(C)C)C2)ccc1Nc1cc2c(cn1)N(C)C(=O)c1occc1N2C    E (E is ≦35%)
CCOc1cc(C(=O)N2CC[C@@H](N(CC)CC)C2)ccc1Nc1cc2c(cn1)N(C)C(=O)c1occc1N2C    E (E is ≦35%)
CCOc1cc(C(=O)N2CC(N3CCCCC3)C2)ccc1Nc1cc2c(cn1)N(C)C(=O)c1ccccc1N2C    E (E is ≦35%)
CCOc1cc(C(=O)N2CCC[C@H](O)C2)ccc1Nc1cc2c(cn1)N(C)C(=O)c1ccccc1N2C    E (E is ≦35%)
C=CCN1CCN(C(=O)c2ccc(Nc3cc4c(cn3)N(C)C(=O)c3ccccc3N4C)c(OCC)c2)CC1    E (E is ≦35%)

## Task Entry under review: `CCOc1cc(CO)ccc1Nc1cc2c(cn1)N(C)C(=O)c1ccccc1N2C` . Reported Kinase inhibition % at indicated screening concentration: AurB or AurC?
## Result E (E is ≦35%)

## Task Entry under review: `CCOc1cc(C(=O)NCCN(CC)CC)ccc1Nc1cc2c(cn1)N(C)C(=O)c1ccccc1N2C` . Reported Kinase inhibition % at indicated screening concentration: AurB or AurC?
## Result E (E is ≦35%)

## Task Entry under review: `CCOc1cc(C(=O)N2CCN(CCO)CC2)ccc1Nc1cc2c(cn1)N(C)C(=O)c1ccccc1N2C` . Reported Kinase inhibition % at indicated screening concentration: AurB or AurC?
## Result E (E is ≦35%)

## Task Entry under review: `CCOc1cc(C(=O)N(C)CCn2ccnc2)ccc1Nc1cc2c(cn1)N(C)C(=O)c1ccccc1N2C` . Reported Kinase inhibition % at indicated screening concentration: AurB or AurC?
## Result E (E is ≦35%)

## Task Entry under review: `CCOc1cc(C(=O)N2CC[C@@H](N3CCCC3)C2)ccc1Nc1cc2c(cn1)N(C)C(=O)c1ccccc1N2C` . Reported Kinase inhibition % at indicated screening concentration: AurB or AurC?
## Result E (E is ≦35%)

====

Biological target: ERK5 (Homo sapiens)
Construct: screened for activity against several kinases in Jurkat cells; endogenous in cells; host or cells: Jurkat cell lysate
Sequence (Q13164 whole entry): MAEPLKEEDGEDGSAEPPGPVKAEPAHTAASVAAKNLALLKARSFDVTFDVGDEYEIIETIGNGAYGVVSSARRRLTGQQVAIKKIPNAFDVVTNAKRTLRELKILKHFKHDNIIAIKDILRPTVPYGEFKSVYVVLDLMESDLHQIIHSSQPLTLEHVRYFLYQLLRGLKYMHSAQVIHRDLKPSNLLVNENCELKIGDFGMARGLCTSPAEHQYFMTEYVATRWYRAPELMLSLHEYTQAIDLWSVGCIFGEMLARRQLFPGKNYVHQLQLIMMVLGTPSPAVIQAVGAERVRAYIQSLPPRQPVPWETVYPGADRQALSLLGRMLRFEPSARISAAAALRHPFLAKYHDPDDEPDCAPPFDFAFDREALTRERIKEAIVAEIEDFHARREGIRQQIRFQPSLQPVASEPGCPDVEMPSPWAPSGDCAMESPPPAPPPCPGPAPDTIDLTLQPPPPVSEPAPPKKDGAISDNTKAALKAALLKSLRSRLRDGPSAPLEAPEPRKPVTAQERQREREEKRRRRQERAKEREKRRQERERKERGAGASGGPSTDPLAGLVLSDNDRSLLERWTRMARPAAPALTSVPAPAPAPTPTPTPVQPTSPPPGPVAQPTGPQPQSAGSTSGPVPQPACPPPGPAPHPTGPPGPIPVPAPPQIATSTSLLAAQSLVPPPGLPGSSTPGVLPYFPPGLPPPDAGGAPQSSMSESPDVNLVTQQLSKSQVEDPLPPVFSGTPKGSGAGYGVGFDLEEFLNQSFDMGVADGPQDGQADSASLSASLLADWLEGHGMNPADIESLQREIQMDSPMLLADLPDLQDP
Assay: Probe-based (AX9989 acyl phosphate ATP probe) kinase profiling in Jurkat lysate: ERK5
Assay type: binding
Conditions: screening concentration 1 μM; read-out: ERK5 Inhibition % at indicated screening concentration
measurement-kind: inhibition at 1 µM

The cases that follow already have their inhibition at 1 µM on record.
CCOc1cc(C(=O)N2CCOCC2)ccc1Nc1cc2c(cn1)N(C)C(=O)c1ccccc1S2    50 to 75%
[2H]C([2H])([2H])N1C(=O)c2ccccc2N(C([2H])([2H])[2H])c2cc(Nc3ccc(C(=O)N4CCN(C(C)=O)CC4)cc3OCC)ncc21    > 90%
CC(C)Oc1cc(C(=O)N2CCN(C3CCN(C)CC3)CC2)ccc1Nc1cc2c(cn1)N(C)C(=O)c1ccccc1N2C    > 90%

## Task // map CCOc1cc(C(=O)N2CCC(NC3CCN(C)CC3)C2)ccc1Nc1cc2c(cn1)N(C)C(=O)c1ccccc1N2C (stereo not shown) to recorded inhibition at 1 µM (system: ERK5 (Homo sapiens))
## Result > 90%

## Task // map `CCOc1cc(C(=O)N2CCN(C3CCN(C)CC3)CC2)ccc1Nc1cc2c(cn1)N(C)C(=O)c1ccccc1N2C` to recorded inhibition at 1 µM (system: ERK5 (Homo sapiens))
## Result > 90%

## Task // map `CCOc1cc(C(=O)N2C[C@H]3CCN[C@H]3C2)ccc1Nc1cc2c(cn1)N(C)C(=O)c1ccccc1N2C` to recorded inhibition at 1 µM (system: ERK5 (Homo sapiens))
## Result > 90%

## Task // map `CCOc1cc(C(=O)N2CCN(C3CCN(C)CC3)CC2)ccc1Nc1cc2c(cn1)N(C)C(=O)c1ccccc1N2C1CC1` to recorded inhibition at 1 µM (system: ERK5 (Homo sapiens))
## Result > 90%

====

Tested on: human PBMCs
Experiment: Cytokine response by primary human PBMCs stimulated with PMA/ionomycin or LPS
Format: cell-based
Conditions: PBMC, PMA/ionomycin 20 h, read-out: EC50 (μM) under PMA/ionomycin stimulation, GM-CSF
# maps each entry to its EC50
Entry rule: numbers only, all in µM.

CCOc1cc(C(=O)N2CCCN(C)CC2)ccc1Nc1cc2c(cn1)N(C)C(=O)c1ccccc1N2C    4.67

Now consider a different molecule.
## Task Entry under review: `CCOc1cc(C(=O)N2CCC(N3CCCC3)CC2)ccc1Nc1cc2c(cn1)N(C)C(=O)c1ccccc1N2C` . Reported EC50?
## Result 3.27

====

# maps each entry to its inhibition at 10 µM
Target: ERK5 (Homo sapiens)
Construct: screened for activity against several kinases in Jurkat cells; endogenous in cells; host or cells: Jurkat cell lysate
Assay: Probe-based (AX9989 acyl phosphate ATP probe) kinase profiling in Jurkat lysate: ERK5
Assay type: binding
Details: screening concentration 10 μM; read-out: ERK5 Inhibition % at indicated screening concentration

CCOc1cc(C(=O)N2CCN(C3CCN(C)CC3)CC2)ccc1Nc1cc2c(cn1)N(C)C(=O)c1ccccc1[S+]2[O-] (stereo not drawn)    75 to 90%
COc1cccc2c1Oc1cc(N[C@H]3CC[C@H](O)CC3)ncc1N(C)C2=O    > 90%
CCOc1cc(C(=O)N2CCOCC2)ccc1Nc1cc2c(cn1)N(C)C(=O)c1ccccc1[S+]2[O-] (stereo not drawn)    75 to 90%
C[C@@H]1C[C@H](Nc2cc3c(cn2)N(C)C(=O)c2ccccc2N3C)CC[C@H]1O    > 90%
CCOc1cc(C(=O)N2CCC(N3CCCC3)CC2)ccc1Nc1cc2c(cn1)N(C)S(=O)(=O)c1ccccc1N2C    35 to 50%
CCOc1cc(C(=O)O)ccc1Nc1cc2c(cn1)N(C)S(=O)(=O)c1ccccc1N2C    ≤ 35%

## Task Entry under review: `CN1C(=O)c2c(F)ccc(F)c2Oc2cc(N[C@H]3CC[C@H](O)CC3)ncc21` . Reported inhibition at 10 µM?
## Result > 90%

## Task Entry under review: `CCOc1cc(C(=O)N2CC[C@@H](N(C)C)C2)ccc1Nc1cc2c(cn1)N(C)S(=O)(=O)c1ccccc1N2C` . Reported inhibition at 10 µM?
## Result ≤ 35%

## Task Entry under review: `CN1C(=O)c2ccccc2N(C)c2cc(N[C@H]3C[C@H](O)C3)ncc21` . Reported inhibition at 10 µM?
## Result 75 to 90%

## Task Entry under review: `CN1C(=O)c2c(F)cccc2Oc2cc(N[C@H]3CC[C@H](O)CC3)ncc21` . Reported inhibition at 10 µM?
## Result > 90%

## Task Entry under review: CCOc1cc(C(=O)N2CCC(N3CCN(C)CC3)CC2)ccc1Nc1cc2c(cn1)N(C)C(C(F)(F)F)c1ccccc1N2C (stereo not drawn) . Reported inhibition at 10 µM?
## Result 50 to 75%

## Task Entry under review: `CCOc1cc(C(=O)N2CCN(C3CCN(C)CC3)CC2)ccc1Nc1cc2c(cn1)N(C)C(=O)c1c(F)cccc1O2` . Reported inhibition at 10 µM?
## Result > 90%

## Task Entry under review: `CCOc1cc(C(=O)N2CCN(C3CCN(C)CC3)CC2)ccc1Nc1cc2c(cn1)N(C)C(=O)c1ccccc1O2` . Reported inhibition at 10 µM?
## Result > 90%

## Task Entry under review: `CC(C)Oc1cc(C(=O)N2CCC[C@H](O)C2)ccc1Nc1cc2c(cn1)N(C)C(=O)c1ccccc1N2C` . Reported inhibition at 10 µM?
## Result > 90%

## Task Entry under review: `CCOc1cc(C(=O)N2CCN(C3CCN(C)CC3)CC2)ccc1Nc1cc2c(cn1)N(C)C(=N)c1ccccc1N2C` . Reported inhibition at 10 µM?
## Result ≤ 35%

====

# maps each entry to its EC50
System: human PBMCs
Assay: Cytokine response by primary human PBMCs stimulated with PMA/ionomycin or LPS
Assay type: cell-based
Settings: PBMC, PMA/ionomycin 20 h, read-out: EC50 (μM) under PMA/ionomycin stimulation, IL-12

CCOc1cc(C(=O)N2CCCN(C)CC2)ccc1Nc1cc2c(cn1)N(C)C(=O)c1ccccc1N2C    > 10 µM

## Task Entry under review: `CCOc1cc(C(=O)N2CCC(N3CCCC3)CC2)ccc1Nc1cc2c(cn1)N(C)C(=O)c1ccccc1N2C` . Reported EC50?
## Result > 10 µM

====

# maps each entry to its inhibition at 10 µM
Tested on: human CD4+ T cells
Experiment: Cytokines produced by human CD4+ T cells stimulated with PMA/ionomycin
Format: cell-based
Settings: 10 μM compound, PMA/ionomycin 20 h, read-out: Percent inhibition of G-CSF (relative to DMSO control)
Entry rule: numbers only, all in %.

## Task Entry under review: CCOc1cc(C(=O)NCC2CC2)ccc1Nc1cc2c(cn1)N(C)C(=O)c1ccccc1N2C [Compound 57] . Reported inhibition at 10 µM?
## Result 34.5

## Task Entry under review: CCOc1cc(C(=O)N2CCC(N3CCN(C)CC3)CC2)ccc1Nc1cc2c(cn1)N(C)C(=O)c1occc1N2C [Compound 65] . Reported inhibition at 10 µM?
## Result 36.1

## Task Entry under review: CCOc1cc(C(=O)N2CCC(N3CCN(C)CC3)CC2)ccc1Nc1cc2c(cn1)N(C)C(=O)c1ccccc1N2C [Compound 61] . Reported inhibition at 10 µM?
## Result 25.3

## Task Entry under review: CCOc1cc(C(=O)N2CCNCC2)ccc1Nc1cc2c(cn1)N(C)C(=O)c1ccccc1N2C [Compound 62] . Reported inhibition at 10 µM?
## Result 27.6

## Task Entry under review: CCOc1cc(C(=O)N2CCC(N3CCCC3)CC2)ccc1Nc1cc2c(cn1)N(C)C(=O)c1ccccc1N2C [Compound 46] . Reported inhibition at 10 µM?
## Result 26.4
